Ref: paper PMC10023679

Reported Papp at 16 h, 3 μM values follow for various compounds
# procedure.summary: in vitro;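 also: filter plate membrane of 1% soybean lecithin in dodecane, donor and acceptor in 5% DMSO/PBS, incubated at 25 °C, peptide in both compartments measured by LC-MS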
# Format: in vitro ADME
# condition: PAMPA
Non-standard residues stand in square brackets, D forms with d. Residues, ends and D or L forms follow the SMILES beside them. Hica(2S) = CC(C)C[C@H](O)C(=O)O; NMeL = CN[C@@H](CC(C)C)C(=O)O; dHica = CC(C)C[C@@H](O)C(=O)O; dNMeL = CN[C@H](CC(C)C)C(=O)O
The answer is to be given in ×10⁻⁶ cm/s; state only the numeric part.

Query :: What does the data say about its Papp at 16 h, 3 μM? Entry: CC(C)C[C@@H]1C(=O)N[C@H](C(C)C)C(=O)N[C@H](C)C(=O)N2CCC[C@@H]2C(=O)N[C@H](CC(C)C)C(=O)N[C@H](C(C)C)C(=O)N[C@H](C)C(=O)N2CCC[C@@H]2C(=O)N1C (cyclo([dA][dP][dL][dV][dA][dP][dNMeL][dV]))
Result :: 0.01

Query :: Please look up its Papp at 16 h, 3 μM: CC(C)C[C@@H]1NC(=O)[C@H]2CCCN2C(=O)[C@H](CC(C)C)OC(=O)[C@@H](C(C)C)NC(=O)[C@H](CC(C)C)NC(=O)[C@H]2CCCN2C(=O)[C@H](CC(C)C)N(C)C(=O)[C@@H](C(C)C)NC1=O [D8.21-ester] (cyclo(L[dV][NMeL][dP]L[dV][Hica(2S)][dP]))
Result :: 5.8

Query :: Can you look up the measured Papp at 16 h, 3 μM of CC(C)C[C@@H]1NC(=O)[C@H](CC(C)C)N(C)C(=O)[C@@H](C(C)C)NC(=O)[C@H](C)NC(=O)[C@H](C)OC(=O)[C@H]2CCCN2C(=O)[C@@H](CC(C)C)NC(=O)[C@@H]2CCCN2C(=O)[C@H](CC(C)C)NC1=O (relative stereo) for me?
Result :: 1.1

Query :: Would you kindly share the measured Papp at 16 h, 3 μM for CC(C)C[C@@H]1C(=O)N[C@H](C(C)C)C(=O)N[C@H](C)C(=O)N2CCC[C@@H]2C(=O)O[C@H](CC(C)C)C(=O)N[C@H](C(C)C)C(=O)N[C@H](C)C(=O)N2CCC[C@@H]2C(=O)N1C (cyclo([dA][dP][dNMeL][dV][dA][dP][dHica][dV])) ?
Result :: 0.03
